pIC50: −log10 of the molar value.
List of pIC50 tested on human topoisomerase I (hTOPI) (Homo sapiens, UniProt P11387).
Sequence (P11387 whole entry): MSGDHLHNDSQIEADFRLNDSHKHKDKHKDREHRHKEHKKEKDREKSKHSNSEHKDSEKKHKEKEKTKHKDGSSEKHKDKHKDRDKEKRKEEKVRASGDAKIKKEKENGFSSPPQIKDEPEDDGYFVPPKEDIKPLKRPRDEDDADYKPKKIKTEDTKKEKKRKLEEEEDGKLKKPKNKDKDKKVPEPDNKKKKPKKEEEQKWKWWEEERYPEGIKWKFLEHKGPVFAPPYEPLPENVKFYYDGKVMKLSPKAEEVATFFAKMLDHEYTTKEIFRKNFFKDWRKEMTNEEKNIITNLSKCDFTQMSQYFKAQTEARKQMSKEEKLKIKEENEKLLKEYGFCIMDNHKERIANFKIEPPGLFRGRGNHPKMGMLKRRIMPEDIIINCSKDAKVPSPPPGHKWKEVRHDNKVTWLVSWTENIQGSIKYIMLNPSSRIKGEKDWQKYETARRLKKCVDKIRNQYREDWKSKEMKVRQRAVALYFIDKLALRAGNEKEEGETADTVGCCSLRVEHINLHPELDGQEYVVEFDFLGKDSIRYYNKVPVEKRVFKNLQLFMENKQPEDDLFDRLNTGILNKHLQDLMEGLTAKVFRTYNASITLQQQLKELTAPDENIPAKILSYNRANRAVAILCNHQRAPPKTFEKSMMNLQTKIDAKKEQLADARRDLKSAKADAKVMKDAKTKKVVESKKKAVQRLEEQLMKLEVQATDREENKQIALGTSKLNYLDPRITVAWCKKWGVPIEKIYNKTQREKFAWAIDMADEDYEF

A selection of reference data follows.
Tell me pIC50 reported for Cc1c(C(=O)N2CCC(c3nnc(-c4nccc5ccccc45)o3)CC2)oc2ccccc12 [Compound 2] < 3.60

Supply recorded pIC50 for Cc1ccc2c(C)c(C(=O)N3CCC4(CC(=O)c5ccccc5O4)C3)oc2c1 (stereo not drawn) [Compound 12] here. < 3.30

Given Cc1ccc(CN2C[C@]34C=C[C@H](O3)C(C(=O)N3CCn5cccc5C3)C4C2=O)cc1C (stereo partly drawn) [Compound 7] , respond with its pIC50. < 3.30

Give pIC50 for each of the items listed below.
1. Cc1ccc2[nH]c(C3CCN(C(=O)c4oc5ccc(C)cc5c4C)CC3)nc2c1 [Compound 9]
2. Cc1cc2oc(C(=O)N3CCC(c4nc5ccccc5[nH]4)CC3)c(C)c2cc1C [Compound 8]
3. Cc1ccc2oc(C(=O)N3CCC(O)(c4cccc(C(F)(F)F)c4)CC3)c(C)c2c1 [Compound 10]
4. COc1ccc2c(c1)NC1(CCN(C(=O)Cc3c[nH]c4ccccc34)CC1)NS2(=O)=O [Compound 3]

1: < 3.30; 2: < 3.30; 3: < 3.30; 4: < 3.60

Give measured pIC50 for every item shown.
1. Cc1c(C(=O)N2CCC3(CC2)CC(O)(c2ccc(F)cc2)CO3)oc2ccccc12 (stereo not drawn) [Compound 4]
2. Cc1c(C(=O)N2CCCCC2CCc2ccc(O)cc2)oc2c(F)cccc12 (stereo not drawn) [Compound 11]

< 3.60
3.60

----------
target: M. tuberculosis topoisomerase I (MtbTopI) (Mycobacterium tuberculosis, UniProt P9WG49)
Sequence (P9WG49 whole entry): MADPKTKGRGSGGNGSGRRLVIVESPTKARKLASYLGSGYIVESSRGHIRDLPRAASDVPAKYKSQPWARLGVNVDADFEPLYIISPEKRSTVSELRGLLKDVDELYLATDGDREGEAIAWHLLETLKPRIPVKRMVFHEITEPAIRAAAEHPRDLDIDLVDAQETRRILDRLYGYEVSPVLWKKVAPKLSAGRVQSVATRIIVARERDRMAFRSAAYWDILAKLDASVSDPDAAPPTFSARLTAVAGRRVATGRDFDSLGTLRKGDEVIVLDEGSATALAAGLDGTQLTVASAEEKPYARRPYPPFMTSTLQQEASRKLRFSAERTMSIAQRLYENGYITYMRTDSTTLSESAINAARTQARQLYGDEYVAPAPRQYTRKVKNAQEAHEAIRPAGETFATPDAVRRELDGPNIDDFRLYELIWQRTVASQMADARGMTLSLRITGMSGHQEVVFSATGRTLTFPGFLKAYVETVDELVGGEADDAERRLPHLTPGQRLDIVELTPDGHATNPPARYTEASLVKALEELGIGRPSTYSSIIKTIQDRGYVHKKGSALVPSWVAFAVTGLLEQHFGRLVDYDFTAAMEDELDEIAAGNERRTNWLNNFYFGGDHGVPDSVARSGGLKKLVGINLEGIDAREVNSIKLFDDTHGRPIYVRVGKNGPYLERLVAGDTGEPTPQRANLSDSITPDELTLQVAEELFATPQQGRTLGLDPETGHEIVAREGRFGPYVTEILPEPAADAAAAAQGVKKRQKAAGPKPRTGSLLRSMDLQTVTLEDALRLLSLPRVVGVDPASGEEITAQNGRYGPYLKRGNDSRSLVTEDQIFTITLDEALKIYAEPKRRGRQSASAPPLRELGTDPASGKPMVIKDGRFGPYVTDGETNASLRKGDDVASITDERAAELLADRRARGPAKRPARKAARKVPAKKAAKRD
Readout name: log10(IC50) (log10 of the value in µM)
Answers are given as log10 of IC50 in µM.

Return reported log10(IC50) values for all items listed beneath this line.
1. Cc1ccc(CN2C[C@]34C=C[C@H](O3)C(C(=O)N3CCn5cccc5C3)C4C2=O)cc1C (some centres unmarked)
2. O=C(c1ccc2c(c1)OCO2)N1CCC(Cn2nc(-c3ccc(F)cc3)ccc2=O)CC1
3. Cc1ccc2c(C)c(C(=O)N3CCC4(CC(=O)c5ccccc5O4)C3)oc2c1 (centres unmarked)
4. COc1ccc2c(c1)NC1(CCN(C(=O)Cc3c[nH]c4ccccc34)CC1)NS2(=O)=O

1: 0.30; 2: 2.40; 3: 1.80; 4: 1.80

----------
For each of the compounds below, state its pIC50.
molecular target: M. tuberculosis topoisomerase I (MtbTopI) (Mycobacterium tuberculosis, UniProt P9WG49)
Give bare numbers, as −log10 of the molar value.

Reference set, count: 4
For the compound Cc1c(C(=O)N2CCC(c3nnc(-c4nccc5ccccc45)o3)CC2)oc2ccccc12 [Compound 2] , give its reported pIC50. 4.20

Report measured pIC50; entry is Cc1c(C(=O)N2CCCCC2CCc2ccc(O)cc2)oc2c(F)cccc12 (stereo not shown) [Compound 11] 4.20

Annotate the compound O=C(CN1C(=O)C2C3CCC(C3)C2C1=O)N1CCC2(CC1)Nc1ccccc1-n1cccc12 (stereo not shown) [Compound 6] with its measured pIC50. 3.30

Answer with the recorded pIC50 of Cc1c(C(=O)N2CCC3(CC2)CC(O)(c2ccc(F)cc2)CO3)oc2ccccc12 (stereo not shown) [Compound 4] only. 3.90

Please give pIC50, item by item, for the list that follows.
1. Cc1ccc2oc(C(=O)N3CCC(O)(c4cccc(C(F)(F)F)c4)CC3)c(C)c2c1 [Compound 10]
2. Cc1ccc2[nH]c(C3CCN(C(=O)c4oc5ccc(C)cc5c4C)CC3)nc2c1 [Compound 9]

1: 4.20; 2: 4.20

Report pIC50 for Cc1cc2oc(C(=O)N3CCC(c4nc5ccccc5[nH]4)CC3)c(C)c2cc1C [Compound 8] 4.20
